// data source = paper PMC8842279

# experimental_target: hA2B (human A2B adenosine receptor) (Homo sapiens)
# Construct: expressed in transfected cells; host or cells: HEK-293
# Sequence (P29275 whole entry): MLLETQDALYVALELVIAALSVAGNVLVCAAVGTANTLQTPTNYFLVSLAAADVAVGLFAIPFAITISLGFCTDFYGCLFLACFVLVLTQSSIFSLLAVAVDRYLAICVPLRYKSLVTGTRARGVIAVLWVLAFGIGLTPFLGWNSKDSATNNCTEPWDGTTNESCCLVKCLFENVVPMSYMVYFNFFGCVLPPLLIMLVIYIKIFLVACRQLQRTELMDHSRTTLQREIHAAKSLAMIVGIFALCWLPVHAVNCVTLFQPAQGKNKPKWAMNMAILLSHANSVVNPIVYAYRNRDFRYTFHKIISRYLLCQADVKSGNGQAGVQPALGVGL
# assay: Radioligand binding, displacement of [3H]DPCPX, transfected HEK-293 cells
# condition_description: human HEK-293 cells, n = 2, read-out: hA2B % displacement of specific binding at 1 μM
The label depends only on inhibition at 1 µM: condition met if it is at least 3%, condition not met if it is smaller.

molecule="COc1ccc(-c2cc(NC(C)=O)nc(-c3ccc(OC)cc3)n2)cc1 [ISVY-130, reference compound]" assigned_category="condition met"
molecule=COc1ccc(-c2cc(NC(=O)COCC(=O)NCC(=O)NCc3ccccc3)nc(-c3ccc(OC)cc3)n2)cc1 assigned_category="condition not met"
molecule=COc1ccc(-c2cc(NC(=O)CCC(=O)N(C)CC(=O)NC(C)(C)C)nc(-c3ccc(OC)cc3)n2)cc1 assigned_category="condition met"
molecule=COc1ccc(-c2cc(NC(=O)CCC(=O)NCC(=O)NC3CCCCC3)nc(-c3ccc(OC)cc3)n2)cc1 assigned_category="condition met"
molecule=COc1ccc(-c2cc(NC(=O)CCC(=O)N3CCN(CC(=O)NC4CCCCC4)CC3)nc(-c3ccc(OC)cc3)n2)cc1 assigned_category="condition not met"
molecule=COc1ccc(-c2cc(NC(=O)CCC(=O)N(C)CC(=O)NC3CCCCC3)nc(-c3ccc(OC)cc3)n2)cc1 assigned_category="condition not met"

====

measured_property: melting point

substance_smiles=COc1ccc(-c2cc(NC(=O)COCC(=O)N(C)CC(=O)NCc3ccccc3)nc(-c3ccc(OC)cc3)n2)cc1 measured_property="melting point" assay_result="166 to 168 °C"
substance_smiles=COc1ccc(-c2cc(NC(=O)CCC(=O)NCC(=O)NCc3ccccc3)nc(-c3ccc(OC)cc3)n2)cc1 measured_property="melting point" assay_result="184 to 186 °C"
substance_smiles=COc1ccc(-c2cc(NC(=O)CCC(=O)N(C)CC(=O)NC(C)(C)C)nc(-c3ccc(OC)cc3)n2)cc1 measured_property="melting point" assay_result="136 to 138 °C"
substance_smiles=COc1ccc(-c2cc(NC(=O)COCC(=O)NCC(=O)NC3CCCCC3)nc(-c3ccc(OC)cc3)n2)cc1 measured_property="melting point" assay_result="113 to 115 °C"

====

# experimental_target: hA1 (human A1 adenosine receptor) (Homo sapiens, UniProt P30542)
# Construct: expressed in transfected cells; host or cells: CHO
# Sequence (P30542 whole entry): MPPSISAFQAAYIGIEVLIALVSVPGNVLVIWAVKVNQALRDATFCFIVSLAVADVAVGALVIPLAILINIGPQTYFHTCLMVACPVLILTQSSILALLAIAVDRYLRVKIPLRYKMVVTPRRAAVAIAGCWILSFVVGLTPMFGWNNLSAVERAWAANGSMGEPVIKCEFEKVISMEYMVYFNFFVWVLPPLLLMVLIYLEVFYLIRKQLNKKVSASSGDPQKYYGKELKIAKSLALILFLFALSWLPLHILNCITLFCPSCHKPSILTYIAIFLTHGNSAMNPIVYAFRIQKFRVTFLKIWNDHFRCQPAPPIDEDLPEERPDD
# assay: Radioligand binding, displacement of [3H]DPCPX, transfected CHO cells
# condition_description: n = 2, read-out: hA1 % displacement of specific binding at 1 μM
measured_property: inhibition at 1 µM (%)

substance_smiles=COc1ccc(-c2cc(NC(=O)COCC(=O)N(C)CC(=O)NC3CCCCC3)nc(-c3ccc(OC)cc3)n2)cc1 measurement_units=% assay_result=13
substance_smiles=COc1ccc(-c2cc(NC(=O)CCC(=O)NCC(=O)NC(C)(C)C)nc(-c3ccc(OC)cc3)n2)cc1 measurement_units=% assay_result=10
substance_smiles=COc1ccc(-c2cc(NC(=O)CCC(=O)N(C)CC(=O)NC(C)(C)C)nc(-c3ccc(OC)cc3)n2)cc1 measurement_units=% assay_result=32
substance_smiles=COc1ccc(-c2cc(NC(=O)CCC(=O)N3CCN(CC(=O)NCc4ccccc4)CC3)nc(-c3ccc(OC)cc3)n2)cc1 measurement_units=% assay_result=6
substance_smiles=COc1ccc(-c2cc(NC(=O)CCC(=O)N3CCN(CC(=O)NC4CCCCC4)CC3)nc(-c3ccc(OC)cc3)n2)cc1 measurement_units=% assay_result=9
substance_smiles=COc1ccc(-c2cc(NC(=O)CCC(=O)NCC(=O)NCc3ccccc3)nc(-c3ccc(OC)cc3)n2)cc1 measurement_units=% assay_result=2
substance_smiles=COc1ccc(-c2cc(NC(=O)COCC(=O)N(C)CC(=O)NCc3ccccc3)nc(-c3ccc(OC)cc3)n2)cc1 measurement_units=% assay_result=6

====

# experimental_target: hA1 (human A1 adenosine receptor) (Homo sapiens, UniProt P30542)
# Construct: expressed in transfected cells; host or cells: CHO
# assay: Radioligand binding, displacement of [3H]DPCPX, transfected CHO cells
# condition_description: n = 2, read-out: hA1 % displacement of specific binding at 1 μM
// values below are reported inhibition at 1 µM
measured_property: inhibition at 1 µM (%)

molecule="COc1ccc(-c2cc(NC(=O)COCC(=O)N3CCN(CC(=O)NC4CCCCC4)CC3)nc(-c3ccc(OC)cc3)n2)cc1 [10b]" experimental_target="hA1 (human A1 adenosine receptor) (Homo sapiens, UniProt P30542)" assay_result=11
molecule=COc1ccc(-c2cc(NC(=O)COCC(=O)NCC(=O)NC3CCCCC3)nc(-c3ccc(OC)cc3)n2)cc1 experimental_target="hA1 (human A1 adenosine receptor) (Homo sapiens, UniProt P30542)" assay_result=6
molecule=COc1ccc(-c2cc(NC(=O)CCC(=O)N3CCN(CC(=O)NC(C)(C)C)CC3)nc(-c3ccc(OC)cc3)n2)cc1 experimental_target="hA1 (human A1 adenosine receptor) (Homo sapiens, UniProt P30542)" assay_result=19
molecule=COc1ccc(-c2cc(NC(=O)COCC(=O)N(C)CC(=O)NC(C)(C)C)nc(-c3ccc(OC)cc3)n2)cc1 experimental_target="hA1 (human A1 adenosine receptor) (Homo sapiens, UniProt P30542)" assay_result=20
molecule=COc1ccc(-c2cc(NC(=O)CCC(=O)N(C)CC(=O)NC3CCCCC3)nc(-c3ccc(OC)cc3)n2)cc1 experimental_target="hA1 (human A1 adenosine receptor) (Homo sapiens, UniProt P30542)" assay_result=9
molecule="COc1ccc(-c2cc(NC(=O)COCC(=O)N3CCN(CC(=O)NC(C)(C)C)CC3)nc(-c3ccc(OC)cc3)n2)cc1 [10a]" experimental_target="hA1 (human A1 adenosine receptor) (Homo sapiens, UniProt P30542)" assay_result=9
molecule=COc1ccc(-c2cc(NC(=O)COCC(=O)NCC(=O)NCc3ccccc3)nc(-c3ccc(OC)cc3)n2)cc1 experimental_target="hA1 (human A1 adenosine receptor) (Homo sapiens, UniProt P30542)" assay_result=9
molecule=COc1ccc(-c2cc(NC(=O)CCC(=O)N(C)CC(=O)NCc3ccccc3)nc(-c3ccc(OC)cc3)n2)cc1 experimental_target="hA1 (human A1 adenosine receptor) (Homo sapiens, UniProt P30542)" assay_result=32
molecule="COc1ccc(-c2cc(NC(C)=O)nc(-c3ccc(OC)cc3)n2)cc1 [ISVY-130, reference compound]" experimental_target="hA1 (human A1 adenosine receptor) (Homo sapiens, UniProt P30542)" assay_result=1
molecule="COc1ccc(-c2cc(NC(=O)COCC(=O)N3CCN(CC(=O)NCc4ccccc4)CC3)nc(-c3ccc(OC)cc3)n2)cc1 [10c]" experimental_target="hA1 (human A1 adenosine receptor) (Homo sapiens, UniProt P30542)" assay_result=2
molecule=COc1ccc(-c2cc(NC(=O)CCC(=O)NCC(=O)NC3CCCCC3)nc(-c3ccc(OC)cc3)n2)cc1 experimental_target="hA1 (human A1 adenosine receptor) (Homo sapiens, UniProt P30542)" assay_result=5
molecule=COc1ccc(-c2cc(NC(=O)COCC(=O)NCC(=O)NC(C)(C)C)nc(-c3ccc(OC)cc3)n2)cc1 experimental_target="hA1 (human A1 adenosine receptor) (Homo sapiens, UniProt P30542)" assay_result=7

====

# experimental_target: hA2A (human A2A adenosine receptor) (Homo sapiens)
# Construct: expressed in transfected cells; host or cells: HeLa
# Sequence (P29274 whole entry): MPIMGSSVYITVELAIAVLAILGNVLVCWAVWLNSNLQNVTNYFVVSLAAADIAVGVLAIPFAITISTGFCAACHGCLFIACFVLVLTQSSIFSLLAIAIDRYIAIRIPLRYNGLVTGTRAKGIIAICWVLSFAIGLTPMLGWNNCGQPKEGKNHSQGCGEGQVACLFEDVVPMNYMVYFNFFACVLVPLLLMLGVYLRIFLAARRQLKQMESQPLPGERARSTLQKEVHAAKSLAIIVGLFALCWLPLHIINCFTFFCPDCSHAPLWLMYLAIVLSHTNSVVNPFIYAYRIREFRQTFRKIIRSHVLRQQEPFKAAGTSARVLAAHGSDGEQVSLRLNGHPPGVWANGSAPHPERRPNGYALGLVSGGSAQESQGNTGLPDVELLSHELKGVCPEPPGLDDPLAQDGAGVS
# Assay type: binding
# condition_description: human HeLa cells, n = 2
measured_property: hA2A % displacement of specific binding at 1 μM (%)

molecule="COc1ccc(-c2cc(NC(=O)CCC(=O)NCC(=O)NC(C)(C)C)nc(-c3ccc(OC)cc3)n2)cc1 [7a]" measurement_units=% assay_result=3
molecule="COc1ccc(-c2cc(NC(=O)CCC(=O)N(C)CC(=O)NC(C)(C)C)nc(-c3ccc(OC)cc3)n2)cc1 [7d]" measurement_units=% assay_result=3
molecule="COc1ccc(-c2cc(NC(=O)COCC(=O)NCC(=O)NCc3ccccc3)nc(-c3ccc(OC)cc3)n2)cc1 [8c]" measurement_units=% assay_result=1
molecule="COc1ccc(-c2cc(NC(=O)COCC(=O)NCC(=O)NC(C)(C)C)nc(-c3ccc(OC)cc3)n2)cc1 [8a]" measurement_units=% assay_result=9
molecule="COc1ccc(-c2cc(NC(=O)CCC(=O)N3CCN(CC(=O)NCc4ccccc4)CC3)nc(-c3ccc(OC)cc3)n2)cc1 [9c]" measurement_units=% assay_result=9
molecule="COc1ccc(-c2cc(NC(=O)CCC(=O)NCC(=O)NCc3ccccc3)nc(-c3ccc(OC)cc3)n2)cc1 [7c]" measurement_units=% assay_result=3
molecule="COc1ccc(-c2cc(NC(=O)COCC(=O)N(C)CC(=O)NC(C)(C)C)nc(-c3ccc(OC)cc3)n2)cc1 [8d]" measurement_units=% assay_result=4
molecule="COc1ccc(-c2cc(NC(=O)CCC(=O)N3CCN(CC(=O)NC4CCCCC4)CC3)nc(-c3ccc(OC)cc3)n2)cc1 [9b]" measurement_units=% assay_result=1
molecule="COc1ccc(-c2cc(NC(=O)COCC(=O)N3CCN(CC(=O)NCc4ccccc4)CC3)nc(-c3ccc(OC)cc3)n2)cc1 [10c]" measurement_units=% assay_result=7
molecule="COc1ccc(-c2cc(NC(=O)CCC(=O)NCC(=O)NC3CCCCC3)nc(-c3ccc(OC)cc3)n2)cc1 [7b]" measurement_units=% assay_result=9
molecule="COc1ccc(-c2cc(NC(=O)CCC(=O)N(C)CC(=O)NC3CCCCC3)nc(-c3ccc(OC)cc3)n2)cc1 [7e]" measurement_units=% assay_result=11
molecule="COc1ccc(-c2cc(NC(=O)COCC(=O)N(C)CC(=O)NCc3ccccc3)nc(-c3ccc(OC)cc3)n2)cc1 [8f]" measurement_units=% assay_result=1
molecule="COc1ccc(-c2cc(NC(=O)CCC(=O)N(C)CC(=O)NCc3ccccc3)nc(-c3ccc(OC)cc3)n2)cc1 [7f]" measurement_units=% assay_result=20
molecule="COc1ccc(-c2cc(NC(=O)COCC(=O)N(C)CC(=O)NC3CCCCC3)nc(-c3ccc(OC)cc3)n2)cc1 [8e]" measurement_units=% assay_result=8
molecule="COc1ccc(-c2cc(NC(=O)COCC(=O)N3CCN(CC(=O)NC4CCCCC4)CC3)nc(-c3ccc(OC)cc3)n2)cc1 [10b]" measurement_units=% assay_result=3
